# Study target: GST-Hu-p50 (Homo sapiens, UniProt P19838 7-356)
# Sequence (P19838 7-356): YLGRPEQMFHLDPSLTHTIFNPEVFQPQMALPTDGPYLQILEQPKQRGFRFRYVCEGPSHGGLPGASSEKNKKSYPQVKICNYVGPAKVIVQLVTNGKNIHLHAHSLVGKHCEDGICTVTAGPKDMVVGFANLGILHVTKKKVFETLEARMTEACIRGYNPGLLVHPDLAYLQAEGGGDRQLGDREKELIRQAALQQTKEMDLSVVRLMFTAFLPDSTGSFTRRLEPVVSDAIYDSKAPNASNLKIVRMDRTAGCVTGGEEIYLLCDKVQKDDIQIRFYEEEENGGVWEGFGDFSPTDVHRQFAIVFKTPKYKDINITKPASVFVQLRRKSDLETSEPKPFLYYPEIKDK
# Assay: protein-binding microarray (PBM); PBM: ~300 nM protein, 6 mM HEPES pH 7.8, 80 mM KCl, 0.5 mM EDTA, 0.5 mM EGTA, 6% glycerol, 35 ng/ul poly-dIdC, 1% milk, 1 h, room temperature; Ap Aiptasia and Nv Nematostella (sea anemones) / Co Capsaspora / Aq Amphimedon (sponge) / Dm Drosophila / Hu human; RHD is the Rel homology domain; high values mean tight binding
# Applied conditions: dsDNA, one strand shown
Response field label takes MET when binding signal is strictly below 3 z-score and NOT MET in all other cases.

Solved entries (count: 5):
> print(dat)
                              sequence.code  assigned.class
1  CCGATTAACATCAAAAACTCCCATGATGTTAATCGGGTCTTGATTCGCTTGACGCTGCTG         NOT MET
2  CCGATTAACATCACCCATCCCCCTGATGTTAATCGGGTCTTGATTCGCTTGACGCTGCTG         NOT MET
3  CCGATTAACATCAGGAATCCCTATGATGTTAATCGGGTCTTGATTCGCTTGACGCTGCTG             MET
4  CCGATTAACATCATGTTGGGAAATGATGTTAATCGGGTCTTGATTCGCTTGACGCTGCTG             MET
5  CCGATTAACATCAAAAAATACCATGATGTTAATCGGGTCTTGATTCGCTTGACGCTGCTG             MET

Query: Could you please tell me whether binding signal recorded for CCGATTAACATCACGTAAATCCCTGATGTTAATCGGGTCTTGATTCGCTTGACGCTGCTG is less than 3 z-score?
Result: MET

Query: Could you please tell me whether binding signal recorded for CCGATTAACATCAACCAATTCCCTGATGTTAATCGGGTCTTGATTCGCTTGACGCTGCTG is less than 3 z-score?
Result: MET

Query: Could you please tell me whether binding signal recorded for CCGATTAACATCAGGAAAAACCCTGATGTTAATCGGGTCTTGATTCGCTTGACGCTGCTG is less than 3 z-score?
Result: NOT MET

Query: Could you please tell me whether binding signal recorded for CCGATTAACATCAGGGAATCCTATGATGTTAATCGGGTCTTGATTCGCTTGACGCTGCTG is less than 3 z-score?
Result: MET

Query: Could you please tell me whether binding signal recorded for CCGATTAACATCACCCCTCCCCATGATGTTAATCGGGTCTTGATTCGCTTGACGCTGCTG is less than 3 z-score?
Result: NOT MET

Query: Could you please tell me whether binding signal recorded for CCGATTAACATCAGGAATGTCCCTGATGTTAATCGGGTCTTGATTCGCTTGACGCTGCTG is less than 3 z-score?
Result: NOT MET

Query: Could you please tell me whether binding signal recorded for CCGATTAACATCAGGGGGTAAAATGATGTTAATCGGGTCTTGATTCGCTTGACGCTGCTG is less than 3 z-score?
Result: NOT MET

Query: Could you please tell me whether binding signal recorded for CCGATTAACATCAGGCAAGTCCCTGATGTTAATCGGGTCTTGATTCGCTTGACGCTGCTG is less than 3 z-score?
Result: NOT MET

Data credit: paper PMC5700166
